Source: ChEMBL document CHEMBL1817560

study system: Insulin-like growth factor 1 receptor (Homo sapiens) (UniProt P08069)
Sequence (P08069 31-736 limits assumed): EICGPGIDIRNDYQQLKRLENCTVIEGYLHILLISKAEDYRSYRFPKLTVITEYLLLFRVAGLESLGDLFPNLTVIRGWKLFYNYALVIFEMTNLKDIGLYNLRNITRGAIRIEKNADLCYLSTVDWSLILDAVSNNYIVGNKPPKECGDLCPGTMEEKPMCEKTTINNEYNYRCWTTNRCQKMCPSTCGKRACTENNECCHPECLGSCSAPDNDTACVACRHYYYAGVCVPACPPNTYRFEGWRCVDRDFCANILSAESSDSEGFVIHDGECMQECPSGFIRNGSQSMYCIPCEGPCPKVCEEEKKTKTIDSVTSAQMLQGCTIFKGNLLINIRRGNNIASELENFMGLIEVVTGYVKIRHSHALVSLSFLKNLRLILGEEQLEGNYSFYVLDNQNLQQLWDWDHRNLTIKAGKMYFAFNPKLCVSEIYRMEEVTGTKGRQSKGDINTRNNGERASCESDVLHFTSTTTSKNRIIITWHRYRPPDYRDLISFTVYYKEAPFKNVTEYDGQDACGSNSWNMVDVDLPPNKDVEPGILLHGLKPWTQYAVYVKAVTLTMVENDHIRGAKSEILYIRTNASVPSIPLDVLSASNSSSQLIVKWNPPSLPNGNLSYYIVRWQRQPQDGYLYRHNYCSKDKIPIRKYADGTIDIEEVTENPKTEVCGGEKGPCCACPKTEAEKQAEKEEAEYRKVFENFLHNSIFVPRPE
Sequence (P08069 741-1367 limits assumed): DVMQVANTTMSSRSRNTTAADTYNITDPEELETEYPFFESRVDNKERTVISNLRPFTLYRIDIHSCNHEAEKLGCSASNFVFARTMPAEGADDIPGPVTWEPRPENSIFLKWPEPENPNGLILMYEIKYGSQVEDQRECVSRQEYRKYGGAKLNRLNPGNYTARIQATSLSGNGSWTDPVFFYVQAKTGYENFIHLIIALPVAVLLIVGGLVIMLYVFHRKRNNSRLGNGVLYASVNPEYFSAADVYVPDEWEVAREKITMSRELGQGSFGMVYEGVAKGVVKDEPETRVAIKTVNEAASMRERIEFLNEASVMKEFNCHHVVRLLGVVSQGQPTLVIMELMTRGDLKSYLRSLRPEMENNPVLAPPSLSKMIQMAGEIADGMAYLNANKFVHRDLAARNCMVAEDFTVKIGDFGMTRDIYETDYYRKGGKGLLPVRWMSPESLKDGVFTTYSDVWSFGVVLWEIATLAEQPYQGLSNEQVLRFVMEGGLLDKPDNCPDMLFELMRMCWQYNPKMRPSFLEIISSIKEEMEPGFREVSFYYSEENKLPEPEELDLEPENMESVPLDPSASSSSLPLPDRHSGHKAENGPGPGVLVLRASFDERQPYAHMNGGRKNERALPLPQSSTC
test name: Inhibition of IGF1R expressed in Escherichia coli or baculovirus-infected insect cells at 400 uM by TR-FRET assay
# Lookup of reported inhibition keyed by entry
Numbers only here, please. The scale is %.

Previously resolved entries follow.
>>> print(df.to_string())
                               molecule  units_label  reported_measurement
0  Cc1ccc(NC(=O)Nc2cccc(C(F)(F)F)c2)cc1            %                     0
1              c1ccc(-c2cnc3nccnn23)cc1            %                     0
2                    Nc1[nH]cnc2ncnc1-2            %                    44
3                   c1ccc(Nc2ncccn2)cc1            %                    18
4                      c1ccc2[nH]ncc2c1            %                    24

Per the reported Insulin-like growth factor 1 receptor (Homo sapiens) (UniProt P08069) data, Nc1[nH]nc2ccccc12 has inhibition of 47

Short answer on Insulin-like growth factor 1 receptor (Homo sapiens) (UniProt P08069) for Nc1ccc2ncc(-c3ccccc3)n2n1 , inhibition: 92

Reported inhibition (Insulin-like growth factor 1 receptor (Homo sapiens) (UniProt P08069)) for entry c1ccc(Nc2ccccc2)cc1 is 0

# lookup: c1cnc2[nH]ccc2c1 on Insulin-like growth factor 1 receptor (Homo sapiens) (UniProt P08069), inhibition = 23

Let me check: c1n[nH]c2c1CCCC2 , system Insulin-like growth factor 1 receptor (Homo sapiens) (UniProt P08069), measured inhibition is 15

Note to self: inhibition of O=C(Nc1ccccc1)Nc1cccc(C(F)(F)F)c1 with Insulin-like growth factor 1 receptor (Homo sapiens) (UniProt P08069) was 1

With Insulin-like growth factor 1 receptor (Homo sapiens) (UniProt P08069) as the test system, CC(C)(C)c1cc(NC(=O)Nc2ccccc2)no1 showed inhibition of 0

Tested on Insulin-like growth factor 1 receptor (Homo sapiens) (UniProt P08069): O=C(Nc1ccccc1)Nc1ccccc1 . Observed inhibition: 6

Test item Cc1ccc(NC(=O)Nc2cc(C(C)(C)C)nn2-c2ccccc2)cc1 ; Insulin-like growth factor 1 receptor (Homo sapiens) (UniProt P08069); reported inhibition was 5

inhibition on Insulin-like growth factor 1 receptor (Homo sapiens) (UniProt P08069) for Nc1ncccc1OCc1ccccc1 is 20
